Tested on: HTT
measurement_description: RT-qPCR splicing assay for HTT mRNA isoforms (canonical junction CJ and alternative junction AJ)
Type: cell-based
assay_conditions: increase in AJ mRNA, A673 or K562 cell line, 24 hours treatment, read-out: HTT AJ AC50
property_label: AC50

compound="Cc1cn2cc(-c3cc(=O)n4cc(N5CCNC6(CC6)C5)sc4n3)cc(F)c2n1 [Compound 207]" property_label=AC50 result="> 10 µM"
compound="Cc1cn2nc(-c3nc4ncn(C5CCNCC5)c(=O)c4s3)cc(C)c2n1 [Compound 231]" property_label=AC50 result="0.1 to 1 µM"
compound="Cc1cc(-c2cn3c(=O)cc(N4CCN(C)CC4)nc3s2)cc2cn(C)nc12 [Compound 183]" property_label=AC50 result="> 10 µM"
compound="Cc1cn2cc(-n3cnc4nc(N5CCN(C)CC5)sc4c3=O)cc(C(F)(F)F)c2n1 [Compound 230]" property_label=AC50 result="> 10 µM"

----------
Catalogue of molecules with associated AC50
Tested on: HTT
measurement_description: RT-qPCR splicing assay for HTT mRNA isoforms (canonical junction CJ and alternative junction AJ)
Type: cell-based
assay_conditions: increase in AJ mRNA, A673 or K562 cell line, 24 hours treatment, read-out: HTT AJ AC50
property_label: AC50

molecule="Cc1cn2cc(-n3cnc4nc(N5CCN(C)CC5)sc4c3=O)cc(F)c2n1 [Compound 228]" property_label=AC50 result="1000 to 10000 nM"
molecule="CN1CCN(c2nc3ncn(-c4ccc5nn(C)cc5c4)c(=O)c3s2)CC1 [Compound 182]" property_label=AC50 result="1000 to 10000 nM"
molecule="Cc1cc(-c2cc(=O)n3cc(N4CCN(C)CC4)sc3n2)cc2cn(C)nc12 [Compound 109]" property_label=AC50 result="> 10000 nM"
molecule="Cc1cc(-c2cc3ncn(C4CCNCC4)c(=O)c3s2)cc2cn(C)nc12 [Compound 236]" property_label=AC50 result="100 to 1000 nM"
molecule="Cc1cc(-c2cc3ncn(C4CCN(C)CC4)c(=O)c3s2)cc2cn(C)nc12 [Compound 237]" property_label=AC50 result="100 to 1000 nM"
molecule="Cc1cc(-c2nc3ncn(C4CCNCC4)c(=O)c3s2)cc2cn(C)nc12 [Compound 233]" property_label=AC50 result="< 100 nM"
molecule="Cc1cn2nc(-c3cc(=O)n4cc(N5CCNC6(CC6)C5)sc4n3)cc(C)c2n1 [Compound 211]" property_label=AC50 result="1000 to 10000 nM"

----------
Catalogue of compounds with associated IC50
Test system: Target C
measurement_description: RT-qPCR canonical junction panel assay, Target C
Type: cell-based
assay_conditions: gene panel, read-out: Target C IC50 (decrease in CJ mRNA levels)
property_label: IC50

structure_string=Cc1cn2cc(-c3nn4c(=O)cc(N5CCNCC5)nc4s3)cc(F)c2n1 result="> 10 µM"
structure_string=Cc1cc(-c2nn3c(=O)cc(N4CCN(C)CC4)nc3s2)cc2cn(C)nc12 result="1 to 10 µM"
structure_string=Cc1cn2cc(-c3cc4ncn(C5CCNCC5)c(=O)c4s3)cc(F)c2n1 result="0.1 to 1 µM"
structure_string=Cc1cn2cc(-c3cn4c(=O)cc(N5CCNCC5)nc4s3)cc(F)c2n1 result="> 10 µM"
